melting point listing for selected molecules.

Recorded melting point, per entry:
[
  {
    "Molecule": "CCc1cccc(CSC)c1NC(=O)CC1c2ccccc2Oc2ccccc21",
    "Reading": "122 to 123 °C"
  },
  {
    "Molecule": "Cc1c(SCCCSc2sccc2[N+](=O)[O-])ccnc1CO",
    "Reading": "134 to 138 °C"
  },
  {
    "Molecule": "CSc1ccc(CC2CCc3cc(OCCn4ccnc4)ccc3C2=O)cc1 (stereo not given)",
    "Reading": "114 to 117 °C"
  }
]

IN: Let me know recorded melting point for O=C(O)c1cc(-c2ccc(Cl)cc2)nc(-c2ccc(Oc3ccc(F)cc3)cc2)c1 , thanks.
OUT: 201 to 202 °C

IN: Let me know recorded melting point for COC(=O)NNC(=S)Cc1cc(OC)c(OC)c(OC)c1 , thanks.
OUT: 134 °C

IN: Let me know recorded melting point for COc1ccc(C#N)cc1-c1cc(-c2cccc(C#N)c2)on1 , thanks.
OUT: 241 to 243 °C

IN: Let me know recorded melting point for COc1ccc(-c2cnc3cc4cnn(CC(=O)O)c4cc3n2)cc1F , thanks.
OUT: > 260 °C

IN: Let me know recorded melting point for O=c1ccc(-c2ccc(OCC(O)CN3CCCCC3)cc2)n[nH]1 (stereo not given) , thanks.
OUT: 185 °C

IN: Let me know recorded melting point for O=C(CNc1c(C(=O)O)[nH]c2cc(Cl)cc(Cl)c12)c1ccccc1Cc1ccccc1 , thanks.
OUT: 234 to 235 °C

IN: Let me know recorded melting point for COc1ccc(C(=O)CCC2CCN(C(C)=O)CC2)cc1N , thanks.
OUT: 101 to 103 °C

* * *

melting point listing for selected compounds.

Recorded melting point, per entry:
[
  {
    "Compound": "COc1ccc(C2=NN(c3ccccc3)C(=O)[C@H]3CCCC[C@@H]23)cc1OC (relative stereo)",
    "Reading": "122 to 124 °C"
  },
  {
    "Compound": "CCC(C)C(C(=O)NS(C)(=O)=O)c1nc(OC)cc(OC)n1 (centres undefined)",
    "Reading": "97 to 101 °C"
  },
  {
    "Compound": "CC1(C)OCc2cc(C(=O)CBr)ccc2O1",
    "Reading": "52 to 54 °C"
  },
  {
    "Compound": "CSCCn1c2ccc(C)cc2c(=O)c2c1cnn2C",
    "Reading": "125 °C"
  },
  {
    "Compound": "COCOc1cc(C=CC(=O)c2c(OC)cc(OC)c(CC=C(C)C)c2O)ccc1OC",
    "Reading": "116 to 117 °C"
  }
]

IN: Let me know recorded melting point for COC(=O)COc1cccc(NC(=O)c2cc(-c3cccc(F)c3)ccc2F)c1 , thanks.
OUT: 103 to 104 °C

IN: Let me know recorded melting point for CCCCCCCCCCCCOC(=O)c1cc(C(C)(C)C)c(OC(=O)c2cc(C(C)(C)C)c(O)c(C(C)(C)C)c2)c(C(C)(C)C)c1 , thanks.
OUT: 53 to 56 °C

IN: Let me know recorded melting point for O=C(C1CC1)N1CCc2cc(S(=O)(=O)N3CCN(c4cccc(Cl)c4)CC3)ccc21 , thanks.
OUT: 162 to 163 °C

IN: Let me know recorded melting point for CCCc1c(OCCCCCCc2ccc(C(=O)c3cccc(C(=O)O)c3)cc2CCC(=O)O)ccc2c1OCCC2=O , thanks.
OUT: 137 to 139 °C
